- targetOrTestSystem: Androgen receptor (Homo sapiens, UniProt P10275)
- Sequence (P10275 whole entry): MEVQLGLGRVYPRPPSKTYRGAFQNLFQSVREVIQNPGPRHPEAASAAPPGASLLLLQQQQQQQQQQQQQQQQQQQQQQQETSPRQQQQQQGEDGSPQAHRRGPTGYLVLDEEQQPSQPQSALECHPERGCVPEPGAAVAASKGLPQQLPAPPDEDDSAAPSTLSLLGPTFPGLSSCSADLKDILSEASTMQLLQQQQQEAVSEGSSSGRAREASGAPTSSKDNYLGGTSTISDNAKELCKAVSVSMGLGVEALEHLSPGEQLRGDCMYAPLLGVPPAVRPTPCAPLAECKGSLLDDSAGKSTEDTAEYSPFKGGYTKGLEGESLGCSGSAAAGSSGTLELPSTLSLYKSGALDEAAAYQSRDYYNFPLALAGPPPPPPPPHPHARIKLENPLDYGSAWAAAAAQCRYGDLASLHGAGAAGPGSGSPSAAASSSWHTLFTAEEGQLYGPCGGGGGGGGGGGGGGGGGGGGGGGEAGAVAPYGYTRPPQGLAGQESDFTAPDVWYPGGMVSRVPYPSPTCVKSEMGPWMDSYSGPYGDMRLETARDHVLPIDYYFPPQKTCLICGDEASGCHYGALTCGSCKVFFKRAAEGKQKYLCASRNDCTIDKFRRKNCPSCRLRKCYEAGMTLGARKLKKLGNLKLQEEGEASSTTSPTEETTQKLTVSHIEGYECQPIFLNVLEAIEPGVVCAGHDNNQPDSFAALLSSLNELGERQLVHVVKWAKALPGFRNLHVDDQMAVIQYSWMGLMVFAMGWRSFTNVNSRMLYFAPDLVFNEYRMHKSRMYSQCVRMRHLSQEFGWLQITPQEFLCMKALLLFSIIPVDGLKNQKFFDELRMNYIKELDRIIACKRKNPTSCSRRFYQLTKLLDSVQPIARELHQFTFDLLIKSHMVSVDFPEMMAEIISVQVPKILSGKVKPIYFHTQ
- experimentalProtocol: Inhibition of androgen receptor in human LNCAP cells assessed as inhibition of DHT-induced KLK2 gene expression by Array Plate assay
- Type: cell-based
quantityKind: IC50 (µM)
Unit µM implied. Number only.

## Input For the molecule "CC(=O)OC[C@]12CC[C@H]3[C@@H](CC=C4C=CCC(=O)[C@@]43C)[C@]1(O)CC[C@@]2(O)[C@@](C)(O)[C@H]1CC(C)=C(C)C(=O)O1" , what IC50 is on record?
## Output 2.4

## Input For the molecule "CC(=O)OC[C@]12CC[C@H]3[C@@H](CC=C4CC=CC(=O)[C@@]43C)[C@]1(O)CC[C@@]2(O)[C@@](C)(O)[C@H]1CC(C)=C(C)C(=O)O1" , what IC50 is on record?
## Output 0.58

## Input For the molecule "CC(=O)OC[C@]12CC[C@H]3[C@@H](CC=C4C=CCC(=O)[C@@]43C)[C@]1(O)[C@@H](OC(C)=O)C[C@@]2(O)[C@@](C)(O)[C@H]1CC(C)=C(C)C(=O)O1" , what IC50 is on record?
## Output 0.62

## Input For the molecule "CC(=O)OC[C@]12CC[C@H]3[C@@H](CC=C4CC=CC(=O)[C@@]43C)[C@]1(O)[C@@H](OC(C)=O)C[C@@]2(O)[C@@](C)(O)[C@H]1CC(C)=C(C)C(=O)O1" , what IC50 is on record?
## Output 1.79

====

- Test system: NCI-H460
- experimentalProtocol: Cytotoxicity against human NCI-H460 cells assessed as inhibition of cell proliferation/survival after 72 hrs by resazurin dye reduction assay
- Assay type: functional, cell-based
- conditionContext: NCI-H460, 72 h
quantityKind: pIC50
Scale note: pIC50 = -log10(concentration in M).

## Input For the compound "CC(=O)OC[C@]12CC[C@H]3[C@@H](CC=C4CC=CC(=O)[C@@]43C)[C@]1(O)CC[C@@]2(O)[C@@](C)(O)[C@H]1CC(C)=C(C)C(=O)O1" , what pIC50 is on record?
## Output 5.92

## Input For the compound "CC(=O)OC[C@]12CC[C@H]3[C@@H](C[C@H]4O[C@]45CC=CC(=O)[C@]35C)[C@]1(O)CC[C@@]2(O)[C@@](C)(O)[C@H]1CC(C)=C(C)C(=O)O1" , what pIC50 is on record?
## Output 6.10

## Input For the compound "CC(=O)OC[C@]12CC[C@H]3[C@@H](CC=C4CC=CC(=O)[C@@]43C)[C@]1(O)[C@@H](OC(C)=O)C[C@@]2(O)[C@@](C)(O)[C@H]1CC(C)=C(C)C(=O)O1" , what pIC50 is on record?
## Output 5.70

## Input For the compound "CC(=O)OC[C@]12CC[C@H]3[C@@H](C[C@@H]4O[C@@]45CC=CC(=O)[C@]35C)[C@]1(O)CC[C@@]2(O)[C@@](C)(O)[C@H]1CC(C)=C(C)C(=O)O1" , what pIC50 is on record?
## Output 5.68

## Input For the compound "CC(=O)OC[C@]12CC[C@H]3[C@@H](CC=C4C=CCC(=O)[C@@]43C)[C@]1(O)CC[C@@]2(O)[C@@](C)(O)[C@H]1CC(C)=C(C)C(=O)O1" , what pIC50 is on record?
## Output 5.41

====

- Tested on: NCI-H460
- experimentalProtocol: Cytotoxicity against human NCI-H460 cells assessed as inhibition of cell proliferation/survival after 72 hrs by resazurin dye reduction assay
- Type: functional, cell-based
- conditionContext: NCI-H460, 72 h
pIC50: −log10 of the molar value.
quantityKind: pIC50

## Input For the compound CC1=C(CO)C(=O)O[C@@H]([C@@H](C)[C@H]2CC[C@H]3[C@@H]4C[C@H]5O[C@]56[C@@H](O)C=CC(=O)[C@]6(C)[C@H]4CC[C@]23C)C1 [WITHAFERIN A] , what pIC50 is on record?
## Output > 6.40

## Input For the compound "CC(=O)OC[C@]12CC[C@H]3[C@@H](CC=C4CC=CC(=O)[C@@]43C)[C@]1(O)[C@@H](OC(C)=O)C[C@@]2(O)[C@@](C)(O)[C@H]1CC(CO)=C(C)C(=O)O1" , what pIC50 is on record?
## Output < 5.30

## Input For the compound "CC(=O)OC[C@]12CC[C@H]3[C@@H](CC=C4C=CCC(=O)[C@@]43C)[C@]1(O)[C@@H](OC(C)=O)C[C@@]2(O)[C@@](C)(O)[C@H]1CC(C)=C(C)C(=O)O1" , what pIC50 is on record?
## Output < 5.30

Measured values drawn from ChEMBL document CHEMBL3603831 for this set.
